B1: VH:VL chains; a variant is named by its letters at X, in order (parent)
chain 1: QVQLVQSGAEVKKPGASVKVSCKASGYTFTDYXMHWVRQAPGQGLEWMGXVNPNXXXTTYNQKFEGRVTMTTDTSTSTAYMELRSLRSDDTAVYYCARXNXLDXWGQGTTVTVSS
chain 2: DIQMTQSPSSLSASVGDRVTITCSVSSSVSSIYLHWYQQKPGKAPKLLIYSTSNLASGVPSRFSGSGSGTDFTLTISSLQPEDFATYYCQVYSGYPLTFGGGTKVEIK

Variants of: B1
ASSAY EXPLANATION: yeast display scFab, FACS + sequencing
CONDITION SUMMARY: with MET
The other results are listed elsewhere or left out. No count for the full screen is at hand.
QUANTITY NAME: antigen binding call

YRGKGFGS; binds
FRGGGAVS; binds
